test-protocol: gradient 5% acetonitrile 3 min, to 50% in 2 min, to 85% in 15 min, held 3 min, 100 µL/min
details: column: Zorbax Extend-C18 2.1 x 50 mm; eluents: water / acetonitrile, 0.1% formic acid
Please respond with reported RP-LC retention time for every item in the list.
Use s as the unit, but write only the number.

### Prompt Which RP-LC retention time reading was recorded for the molecule CS(=O)(=O)N1CCC(OC2CCN(C(=O)Nc3ccccc3Cl)CC2)CC1 ?
### Response 785

### Prompt Which RP-LC retention time reading was recorded for the molecule Cc1ccc(Nc2c(-c3ccc(C(=O)O)cc3)nc3cnccn23)cc1Cl ?
### Response 790

### Prompt Which RP-LC retention time reading was recorded for the molecule CCc1nnc(-c2ccc3ccn(CC(=O)NCc4cccs4)c3c2)o1 ?
### Response 790

### Prompt Which RP-LC retention time reading was recorded for the molecule CC(=O)[C@H]1CCC2C3CC[C@H]4C[C@H](O)CC[C@]4(C)C3CC[C@@]21C (some centres undefined) ?
### Response 1270

### Prompt Which RP-LC retention time reading was recorded for the molecule CCN1CCN(C(=O)c2c(OCC3CC3)cc(=O)n3c2CCCCC3)CC1 ?
### Response 569

### Prompt Which RP-LC retention time reading was recorded for the molecule CCN1CCN(c2ccc3nnc(CCc4nc(-c5ccc(F)cc5)no4)n3n2)CC1 ?
### Response 602

### Prompt Which RP-LC retention time reading was recorded for the molecule Cc1ccc(C)c(NC(=O)CSc2nnc3c4cc(-c5ccc(C)c(C)c5)nn4ccn23)c1 ?
### Response 778

### Prompt Which RP-LC retention time reading was recorded for the molecule COc1cc(OC)cc(C(=O)Nc2nc(-c3ccc4c(c3)NC(=O)C(C)O4)c(C)s2)c1 (centres undefined) ?
### Response 962

### Prompt Which RP-LC retention time reading was recorded for the molecule CN(C)c1ncncc1N1CCC(C(=O)NC2CCCCC2)CC1 ?
### Response 607

====

test-protocol: gradient 5% acetonitrile 3 min, to 50% in 2 min, to 85% in 15 min, held 3 min, 100 µL/min
details: column: Zorbax Extend-C18 2.1 x 50 mm; eluents: water / acetonitrile, 0.1% formic acid
endpoint-label: RP-LC retention time
Provide a numeric answer, followed by its unit.

### Prompt Which RP-LC retention time reading was recorded for the molecule O=C(Nc1cccc(F)c1)N1CCC(N2CCN(Cc3cccc(F)c3)C(=O)C2=O)CC1 ?
### Response 755 s

### Prompt Which RP-LC retention time reading was recorded for the molecule Cc1noc(CNC(=O)C2CCN(C(=O)c3csc(-c4ccccc4)n3)CC2)n1 ?
### Response 650 s

### Prompt Which RP-LC retention time reading was recorded for the molecule Cc1ccccc1CC(=O)NC(C)C(=O)Nc1nc2ccccc2[nH]1 (configuration not stated) ?
### Response 654 s

### Prompt Which RP-LC retention time reading was recorded for the molecule COc1ccc(C2(C(=O)N3CCC4(CC3)C(OC)CN4c3cccc(F)c3)CC2)cc1 (configuration not stated) ?
### Response 1090 s

### Prompt Which RP-LC retention time reading was recorded for the molecule CS(=O)(=O)c1cccc(-c2nnc(NC(=O)c3ccc(Cl)s3)o2)c1 ?
### Response 711 s

### Prompt Which RP-LC retention time reading was recorded for the molecule O=C(NCC1CCCO1)C1CCN(Cc2cc3ccccc3n2Cc2ccccc2Cl)CC1 (configuration not stated) ?
### Response 731 s

### Prompt Which RP-LC retention time reading was recorded for the molecule CC(=O)Nc1ccc(C2(C(=O)NCc3ccccc3F)CCC2)cc1 ?
### Response 732 s

### Prompt Which RP-LC retention time reading was recorded for the molecule Cc1nc2sccn2c1-c1nnc(SCc2ccc([N+](=O)[O-])cc2)n1C ?
### Response 626 s

### Prompt Which RP-LC retention time reading was recorded for the molecule Cc1ccccc1NC(=O)CN1C(=O)CC(c2ccccc2)S(=O)(=O)c2ccccc21 (configuration not stated) ?
### Response 894 s

### Prompt Which RP-LC retention time reading was recorded for the molecule Cc1ccc(-c2nc3cnccn3c2Nc2ccc(Cl)cc2)cc1 ?
### Response 1000 s

### Prompt Which RP-LC retention time reading was recorded for the molecule CCCCN1CCN(C(=O)COc2ccc(NC(=O)C3CC3)cn2)CC1 ?
### Response 570 s

### Prompt Which RP-LC retention time reading was recorded for the molecule Cc1nnc(-c2cn(CC(=O)NCCC3=CCCCC3)c3ccccc23)o1 ?
### Response 803 s

### Prompt Which RP-LC retention time reading was recorded for the molecule COc1ccc2nc(-n3nc(C)cc3NC(=O)c3ccc([N+](=O)[O-])o3)sc2c1 ?
### Response 1220 s

### Prompt Which RP-LC retention time reading was recorded for the molecule O=C1CCCCC(C(=O)N2CCOCC2)N1 (configuration not stated) ?
### Response 575 s

### Prompt Which RP-LC retention time reading was recorded for the molecule COc1ccc(NC(=O)Cn2cnc3c(sc4nc(-c5ccccc5)ccc43)c2=O)cc1 ?
### Response 967 s

### Prompt Which RP-LC retention time reading was recorded for the molecule COc1cc2c(Oc3ccc(NC(=O)C4(C(=O)Nc5ccc(F)cc5)CC4)cc3F)ccnc2cc1OCCCN1CCOCC1 ?
### Response 670 s

### Prompt Which RP-LC retention time reading was recorded for the molecule COc1ccc(CNC(=O)Cn2nc(C)c3sc(-c4ccccc4)nc3c2=O)cc1 ?
### Response 846 s

### Prompt Which RP-LC retention time reading was recorded for the molecule Cc1cc(C(=O)NC2CC2)nn1C ?
### Response 600 s

### Prompt Which RP-LC retention time reading was recorded for the molecule COC(=O)C1=CN(c2cccc(F)c2)c2ccccc2S1(=O)=O ?
### Response 796 s

### Prompt Which RP-LC retention time reading was recorded for the molecule CN1C(=O)c2ccccc2Oc2ccc(C(=O)NCc3ccc4c(c3)OCO4)cc21 ?
### Response 826 s

### Prompt Which RP-LC retention time reading was recorded for the molecule O=C(Nc1nc(-c2ccccc2)cs1)c1sc2cc([N+](=O)[O-])ccc2c1Cl ?
### Response 1260 s

### Prompt Which RP-LC retention time reading was recorded for the molecule CCOc1ccccc1CNC(=O)C1CCN(C(=O)c2sccc2-n2cccc2)CC1 ?
### Response 882 s

### Prompt Which RP-LC retention time reading was recorded for the molecule COc1ccccc1CNS(=O)(=O)c1ccccc1-c1nc(-c2ccc(F)cc2)no1 ?
### Response 1210 s

### Prompt Which RP-LC retention time reading was recorded for the molecule O=C(CCCn1c(=O)c2cccn2c2ccc(Br)cc21)NCc1ccccn1 ?
### Response 646 s

### Prompt Which RP-LC retention time reading was recorded for the molecule CCC(C)NC(=O)CCC(=O)N1CCc2c(c(C(=O)N3CCCCC3)nn2C)C1 (configuration not stated) ?
### Response 645 s

### Prompt Which RP-LC retention time reading was recorded for the molecule O=C(CCC1CCCN(S(=O)(=O)c2ccccc2F)C1)NCc1cc(F)ccc1F (configuration not stated) ?
### Response 966 s

### Prompt Which RP-LC retention time reading was recorded for the molecule NC1=NC(=O)/C(=C/c2ccccc2OCC(=O)Nc2ccc(F)cc2)S1 ?
### Response 660 s

### Prompt Which RP-LC retention time reading was recorded for the molecule CN(C)C(CNC(=O)Nc1ccccc1Cl)c1cn(C)c2ccccc12 (configuration not stated) ?
### Response 589 s

### Prompt Which RP-LC retention time reading was recorded for the molecule COCCCNC(=O)C1CCC(=O)N(c2ccc(OC)cc2)C1c1ccc(OC)c(OC)c1 (configuration not stated) ?
### Response 612 s

### Prompt Which RP-LC retention time reading was recorded for the molecule CCCCn1c(N)c(C(=O)OCC)c2nc3ccccc3nc21 ?
### Response 613 s

### Prompt Which RP-LC retention time reading was recorded for the molecule Cn1cc(-c2ccccc2)cc1C(=O)N1CCOCC1 ?
### Response 804 s

### Prompt Which RP-LC retention time reading was recorded for the molecule CCn1cc(C(=O)NCc2ccccc2)c(S(=O)(=O)N2CCSCC2)n1 ?
### Response 880 s
